Test: Caspase-3/7 induction in CHO-K1 cells by small molecules, qHTS cell viability counter screen (AID 1346979); note: nearly all actives have a fitted effect of over 35% in size; note: potency is the fitted concentration of half-maximal effect
Settings: CellTiter-Fluor fluorescence, 17 h; series mostly up to 92.4 µM
Results filed as inconclusive are left out. The source made the active and inactive calls. Calls come from the whole dose curve; as a rule, active = well fitted cell-killing curve with a large enough effect in the repeat runs; inconclusive = weak or mixed curves, or effect the other way; inactive = no such curve, though single readings can be large or run the other way.

| molecule | Potency |
| --- | --- |
| NCc1ccco1 | inactive |
| NC(=O)C1CO1 (stereo not drawn) | inactive |
| COCCC(=O)OC | inactive |
| O=C(N[C@H](CO)[C@H](O)c1ccc([N+](=O)[O-])cc1)C(Cl)Cl | inactive |
| CN[C@H]1CC[C@@H](c2ccc(Cl)c(Cl)c2)c2ccc(S(N)(=O)=O)cc21 | 61.1 µM (active) |
| C=Cc1ccc(O)c(OC)c1 | inactive |
| CCN(CC)c1ccc2c(c1)Oc1cc(N(CC)CC)ccc1C21OC(=O)c2ccccc21 | 2.37 µM (active) |
| N#Cc1nc(Cl)c(Cl)c(Cl)c1Cl | 1.72 µM (active) |
| NC(=O)c1ccccc1Cl | inactive |
| C=C1C(CCl)(CCl)C2(Cl)C(Cl)C(Cl)C1(Cl)C2(Cl)Cl (stereo not drawn) | 53.8 µM (active) |
| CCN(CC)c1ccc(C=O)cc1 | inactive |
| Cc1cccc2c1ccc1ccccc12 | inactive |
| CCCCCCCCOC(=O)c1cc(O)c(O)c(O)c1 | 1.09 µM (active) |

###

Assay: A CellTox Green Cytotoxicity Assay to monitor cytotoxicity in HEK293 cells - 16 hour (AID 1224888); note: nearly all actives have a fitted effect of over 35% in size
Settings: CellTox Green fluorescence; series mostly up to 76.8 µM
Inconclusive results are not listed. Active and inactive are the calls of the source. The call rests on the fitted dose curve; in most records, active means well fitted activation curve with a large enough effect in the repeat runs; inconclusive means weak or mixed curves; inactive means flat fitted curve, though single readings scatter.
Possible outcomes: 1 (yes) for active, 0 (no) for inactive

| compound | cat |
| --- | --- |
| O=C(NCc1ncc(C(F)(F)F)cc1Cl)c1c(Cl)cccc1Cl | 0 (no) |
| CC1(C)[C@H](C(=O)OCc2cccc(Oc3ccccc3)c2)[C@@H]1C=C(Cl)Cl | 0 (no) |
| CC(CC(C)(C)C)CC(C)(C)CC(C)(C)C (centres undefined) | 0 (no) |
| CCn1c2ccccc2c2ccccc21 | 0 (no) |
| C=CC(=O)OCC(Br)CBr (centres undefined) | 0 (no) |
| CCCCCCCCCC[N+](C)(CCCCCCCCCC)CCC[Si](OC)(OC)OC | 1 (yes) |
| CCN(CC)c1ccc(C=O)cc1 | 0 (no) |
| CC(C)(C)C1=CC(=O)C(C(C)(C)C)=CC1=O | 0 (no) |
| Nc1cc([N+](=O)[O-])cc(Cl)c1O | 0 (no) |

###

Experiment: qHTS assay to identify small molecule antagonists of the estrogen related receptor signaling pathway with the pleiotropic PPARgamma coactivator (PGC) from Tox21 10K library - cell viability counter screen (AID 1224840); note: nearly all actives have a fitted effect of over 40% in size
Details: PGC/ERR reporter cells viability, CellTiter-Fluor, 17.5 h; series mostly up to 92.4 µM
Inconclusive results are not listed. Calls of active or inactive are those of the source. The call rests on the fitted dose curve; in most records, active means well fitted cell-killing curve with a large enough effect in the repeat runs (not every such curve was filed as active); inconclusive means weak or mixed curves, or effect the other way; inactive means no such curve, though single readings can be large or run the other way.
Possible outcomes: label 1 = active, label 0 = inactive

| compound | cat |
| --- | --- |
| O=C1OC(=O)c2cc(-c3ccc4c(c3)C(=O)OC4=O)ccc21 | label 0 |
| CN1CCN(c2ccccc2/C=C2\SCCN(c3ccc(Cl)c(Cl)c3)C2=O)CC1 | label 1 |
| O=C1CCC/C=C\CCCCCCCCCC1 | label 0 |
| CCN(CCC#N)c1ccc(N=Nc2ccc([N+](=O)[O-])cc2)cc1 | label 0 |
| O=C1OCc2ccccc21 | label 0 |
| O=C1CCC(=O)N1 | label 0 |
| ClC(c1ccccc1)(c1ccccc1)c1ccccc1 | label 0 |
| CC(C)C(=O)C(C)C | label 0 |
| CC1CCC(C(C)(C)O)CC1 (configuration not stated) | label 0 |
| CC1(C)[C@H](C(=O)OCc2cccc(Oc3ccccc3)c2)[C@@H]1C=C(Cl)Cl | label 0 |
| CN[C@H]1CC[C@@H](c2ccc(Cl)c(Cl)c2)c2ccc(S(N)(=O)=O)cc21 | label 1 |
| S=C1NC=NC2N=CNC12 (configuration not stated) | label 0 |
